assayProtocol: Half life in dog microsomes at 0.3 mM
Format: ADME, Canis lupus familiaris, Microsome

{"structureSmilesString": "Cc1ccc(F)cc1CO[C@H]1CCc2ccc(N3CCNC[C@H]3C)nc21", "half-life": "24 min"}

* * *

assayProtocol: Half life in monkey hepatocyte at 1 mM
Assay type: ADME, Macaca mulatta, Liver
condition: rhesus monkey, hepatocytes

{"structureSmilesString": "Cc1ccc(F)cc1CO[C@H]1CCc2ccc(N3CCNC[C@H]3C)nc21", "half-life": "53 min"}

* * *

assayProtocol: Half life in human microsomes at 0.3 mM
Format: ADME, Microsome
assayEndpoint: half-life

{"structureSmilesString": "Cc1ccc(F)cc1CO[C@H]1CCc2ccc(N3CCNC[C@H]3C)nc21", "assayEndpoint": "half-life", "reading": "44 min"}

* * *

assayProtocol: Intrinsic clearance in monkey hepatocyte at 1 mM
Assay type: ADME, tissue-based, Macaca mulatta, Liver
condition: rhesus monkey, hepatocytes
assayEndpoint: CLint scaled

{"structureSmilesString": "Cc1ccc(F)cc1CO[C@H]1CCc2ccc(N3CCNC[C@H]3C)nc21", "reading": "43 mL/min/kg"}

* * *

assayProtocol: Clearance in dog
Format: ADME, organism-based, Canis lupus familiaris
condition: in vivo

{"structureSmilesString": "Cc1ccc(F)cc1CO[C@H]1CCc2ccc(N3CCNC[C@H]3C)nc21", "clearance": "34 mL/min/kg"}

* * *

assayProtocol: Half life in monkey microsomes at 0.3 mM
Type: ADME, Macaca mulatta, Microsome
condition: rhesus monkey
assayEndpoint: half-life (min)

{"structureSmilesString": "Cc1ccc(F)cc1CO[C@H]1CCc2ccc(N3CCNC[C@H]3C)nc21", "assayEndpoint": "half-life", "reading": 12}

* * *

subjectOfTest: 5-hydroxytryptamine receptor 2A (Homo sapiens)
Sequence (P28223 whole entry): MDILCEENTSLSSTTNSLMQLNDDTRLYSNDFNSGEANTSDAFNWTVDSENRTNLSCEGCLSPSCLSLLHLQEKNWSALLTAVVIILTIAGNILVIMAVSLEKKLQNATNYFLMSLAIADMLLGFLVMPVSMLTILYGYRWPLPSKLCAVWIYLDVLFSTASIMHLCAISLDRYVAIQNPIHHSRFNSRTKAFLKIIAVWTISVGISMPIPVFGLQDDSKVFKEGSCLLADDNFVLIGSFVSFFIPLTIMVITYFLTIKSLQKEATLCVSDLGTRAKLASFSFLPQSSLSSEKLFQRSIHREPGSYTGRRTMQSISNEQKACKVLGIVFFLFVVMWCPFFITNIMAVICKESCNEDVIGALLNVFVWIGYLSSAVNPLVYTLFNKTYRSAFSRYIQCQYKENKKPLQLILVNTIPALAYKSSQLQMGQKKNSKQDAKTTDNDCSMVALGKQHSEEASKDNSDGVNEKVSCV
assayProtocol: Agonist activity against human 5HT2A receptor by FLIPR assay
pEC50: −log10 of the molar value.
assayEndpoint: pEC50

{"compound": "Clc1ccccc1OC1CCc2ccc(N3CCNCC3)nc21 (stereo not drawn)", "subjectOfTest": "5-hydroxytryptamine receptor 2A (Homo sapiens)", "reading": 6.63}
{"compound": "c1cc2c(nc1N1CCNCC1)CCCC2", "subjectOfTest": "5-hydroxytryptamine receptor 2A (Homo sapiens)", "reading": 5.66}
{"compound": "Cc1ccc(F)cc1CO[C@H]1CCc2ccc(N3CCNC[C@H]3C)nc21", "subjectOfTest": "5-hydroxytryptamine receptor 2A (Homo sapiens)", "reading": 6.20}

* * *

assayProtocol: Intrinsic clearance in human microsomes at 0.3 mM
Format: ADME, Microsome

{"structureSmilesString": "Cc1ccc(F)cc1CO[C@H]1CCc2ccc(N3CCNC[C@H]3C)nc21", "CLint scaled / mL/min/kg": 20}

* * *

subjectOfTest: Voltage-gated inwardly rectifying potassium channel KCNH2 (Homo sapiens, UniProt Q12809)
Sequence (Q12809 whole entry): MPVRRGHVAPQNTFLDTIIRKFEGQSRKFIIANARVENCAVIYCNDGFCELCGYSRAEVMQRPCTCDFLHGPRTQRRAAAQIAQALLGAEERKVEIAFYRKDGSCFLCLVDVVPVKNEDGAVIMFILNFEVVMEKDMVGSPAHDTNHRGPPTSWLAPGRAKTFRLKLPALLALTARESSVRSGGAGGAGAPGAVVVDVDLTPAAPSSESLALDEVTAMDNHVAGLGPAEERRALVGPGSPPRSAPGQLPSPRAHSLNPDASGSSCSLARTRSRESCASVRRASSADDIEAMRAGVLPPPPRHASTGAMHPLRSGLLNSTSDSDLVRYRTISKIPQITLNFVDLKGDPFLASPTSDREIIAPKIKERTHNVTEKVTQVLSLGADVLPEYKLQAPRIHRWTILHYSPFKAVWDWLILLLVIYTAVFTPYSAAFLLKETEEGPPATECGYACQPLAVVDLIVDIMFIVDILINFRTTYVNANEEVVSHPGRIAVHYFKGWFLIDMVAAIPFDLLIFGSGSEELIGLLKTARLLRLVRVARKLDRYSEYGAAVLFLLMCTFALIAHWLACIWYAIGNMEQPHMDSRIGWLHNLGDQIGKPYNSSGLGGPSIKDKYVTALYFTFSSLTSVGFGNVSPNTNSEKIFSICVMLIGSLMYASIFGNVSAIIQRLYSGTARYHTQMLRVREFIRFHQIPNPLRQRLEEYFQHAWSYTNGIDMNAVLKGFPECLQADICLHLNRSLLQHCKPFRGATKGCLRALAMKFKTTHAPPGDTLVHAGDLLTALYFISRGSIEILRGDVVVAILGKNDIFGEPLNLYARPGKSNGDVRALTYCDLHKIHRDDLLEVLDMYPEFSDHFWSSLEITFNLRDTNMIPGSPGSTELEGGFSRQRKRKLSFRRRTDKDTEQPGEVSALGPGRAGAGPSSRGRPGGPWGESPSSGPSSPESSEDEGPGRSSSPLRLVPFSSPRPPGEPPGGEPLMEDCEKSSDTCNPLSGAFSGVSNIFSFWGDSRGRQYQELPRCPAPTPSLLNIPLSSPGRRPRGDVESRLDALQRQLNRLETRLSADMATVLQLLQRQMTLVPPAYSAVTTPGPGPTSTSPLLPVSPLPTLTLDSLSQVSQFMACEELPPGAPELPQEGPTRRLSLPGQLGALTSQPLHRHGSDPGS
pIC50: −log10 of the molar value.

{"structureSmilesString": "Cc1ccc(F)cc1CO[C@H]1CCc2ccc(N3CCNC[C@H]3C)nc21", "pIC50": 5.41}

* * *

assayProtocol: Half life in human hepatocyte at 1 mM
Assay type: ADME, cell-based, Liver
condition: hepatocytes

{"structureSmilesString": "Cc1ccc(F)cc1CO[C@H]1CCc2ccc(N3CCNC[C@H]3C)nc21", "readingUnit": "h", "half-life": 2.83}

* * *

subjectOfTest: 5-hydroxytryptamine receptor 2B (Homo sapiens, UniProt P41595)
Sequence (P41595 whole entry): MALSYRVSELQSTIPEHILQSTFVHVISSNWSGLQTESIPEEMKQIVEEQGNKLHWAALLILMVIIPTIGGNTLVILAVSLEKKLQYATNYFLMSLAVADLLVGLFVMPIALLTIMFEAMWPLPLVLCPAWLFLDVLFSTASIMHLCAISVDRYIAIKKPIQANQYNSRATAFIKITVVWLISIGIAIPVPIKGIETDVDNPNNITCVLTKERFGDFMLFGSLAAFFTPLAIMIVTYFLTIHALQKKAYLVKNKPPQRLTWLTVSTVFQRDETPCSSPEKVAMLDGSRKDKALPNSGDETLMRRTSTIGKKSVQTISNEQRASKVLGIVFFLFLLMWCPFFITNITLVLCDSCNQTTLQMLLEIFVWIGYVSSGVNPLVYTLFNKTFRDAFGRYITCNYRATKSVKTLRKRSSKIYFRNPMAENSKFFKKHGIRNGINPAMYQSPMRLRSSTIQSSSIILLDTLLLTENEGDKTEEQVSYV
assayProtocol: Agonist activity against human 5HT2B receptor by FLIPR assay relative to 5HT
Type: functional
List of Activity values.

{"compound": "Fc1ccc(F)c(CO[C@H]2CCc3ccc(N4CCNCC4)nc32)c1", "Activity": "18%"}
{"compound": "Clc1ccccc1O[C@H]1CCc2ccc(N3CCNCC3)nc21", "Activity": "58%"}
{"compound": "Clc1ccccc1O[C@@H]1CCc2ccc(N3CCNCC3)nc21", "Activity": "21%"}
{"compound": "Clc1ccccc1OC1CCc2ccc(N3CCNCC3)nc21 (stereo not given)", "Activity": "50%"}

* * *

assayProtocol: Intrinsic clearance in rat hepatocyte at 1 mM
Type: ADME, cell-based, Liver
condition: hepatocytes
assayEndpoint: CLint scaled (mL/min/kg)

{"structureSmilesString": "Cc1ccc(F)cc1CO[C@H]1CCc2ccc(N3CCNC[C@H]3C)nc21", "assayEndpoint": "CLint scaled", "readingUnit": "mL/min/kg", "reading": 400}

* * *

assayProtocol: Ratio of drug uptake in brain to plasma in rat
Format: ADME, organism-based
condition: in vivo

{"structureSmilesString": "Cc1ccc(F)cc1CO[C@H]1CCc2ccc(N3CCNC[C@H]3C)nc21", "ratio": 3.4}

* * *

subjectOfTest: 5-hydroxytryptamine receptor 2C (Homo sapiens) (UniProt P28335)
Sequence (P28335 whole entry): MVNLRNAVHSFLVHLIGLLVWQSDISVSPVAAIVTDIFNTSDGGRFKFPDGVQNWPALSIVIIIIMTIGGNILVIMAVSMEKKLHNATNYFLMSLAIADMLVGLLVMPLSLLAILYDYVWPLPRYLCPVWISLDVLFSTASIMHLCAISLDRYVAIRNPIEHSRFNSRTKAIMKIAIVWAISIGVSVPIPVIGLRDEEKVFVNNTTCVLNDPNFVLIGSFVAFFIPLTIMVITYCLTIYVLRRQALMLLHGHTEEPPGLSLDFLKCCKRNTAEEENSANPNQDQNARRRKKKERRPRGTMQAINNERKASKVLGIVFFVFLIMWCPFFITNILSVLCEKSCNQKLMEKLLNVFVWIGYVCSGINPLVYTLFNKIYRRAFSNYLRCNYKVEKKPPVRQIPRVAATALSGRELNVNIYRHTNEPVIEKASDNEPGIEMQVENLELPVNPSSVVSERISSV
assayProtocol: Agonist activity against human 5HT2C receptor by FLIPR assay
For each record, check the reported Activity: if it is below 90% write label 1, else write label 0.

{"structureSmilesString": "Clc1ccccc1O[C@@H]1CCCc2ccc(N3CCNCC3)nc21", "cat": "label 0"}
{"structureSmilesString": "c1nc(N2CCNCC2)c2sccc2n1", "cat": "label 1"}
{"structureSmilesString": "Clc1ccccc1O[C@H]1CCCc2ccc(N3CCNCC3)nc21", "cat": "label 0"}
{"structureSmilesString": "CCCn1cnc2c(N3CCNCC3)ncnc21", "cat": "label 1"}
{"structureSmilesString": "c1ccc2c(c1)sc1c(N3CCNCC3)ncnc12", "cat": "label 1"}

These data points were gathered from ChEMBL document CHEMBL1153119.
